Relative substrate activity (rate of hydrolysis), cathepsin V listing for selected substances.
target: cathepsin V (Homo sapiens, UniProt O60911); construct: made in house; assay: Substrate selectivity screening, rate of hydrolysis, cathepsin V; format: biochemical; details: Table S4; substrate 100µM, cathepsin 5nM; pH 5.5, 37 °C; average of at least three screenings
Sequence (O60911 114-334): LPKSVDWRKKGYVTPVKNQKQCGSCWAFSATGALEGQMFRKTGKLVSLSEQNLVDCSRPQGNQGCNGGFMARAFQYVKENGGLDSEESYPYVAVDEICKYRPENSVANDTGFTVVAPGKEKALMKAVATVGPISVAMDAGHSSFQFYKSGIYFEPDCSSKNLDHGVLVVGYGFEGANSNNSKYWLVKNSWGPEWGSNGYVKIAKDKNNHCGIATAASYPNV
Non-standard residues stand in square brackets, D forms with d. *: point of attachment. Phe(3,4-F2) = N[C@@H](Cc1ccc(F)c(F)c1)C(=O)O; ACC = NC(=O)Cc1cc(=O)oc2cc(N*)ccc12; Tic = O=C(O)[C@@H]1Cc2ccccc2CN1; Dab = NCC[C@H](N)C(=O)O

substance	system.name	data.value
Ac-A[dK]K(Ac)R-{ACC} (SMILES CC(=O)NCCCC[C@H](NC(=O)[C@@H](CCCCN)NC(=O)[C@H](C)NC(C)=O)C(=O)N[C@@H](CCCNC(=N)N)C(=O)Nc1ccc2c(CC(N)=O)cc(=O)oc2c1)	cathepsin V (Homo sapiens, UniProt O60911)	0.0 RFU/s

Okay, next one:
Req: I have this substance here, Ac-[Tic][Dab][Phe(3,4-F2)]R-{ACC} (SMILES CC(=O)N1Cc2ccccc2C[C@H]1C(=O)N[C@@H](CCN)C(=O)N[C@@H](Cc1ccc(F)c(F)c1)C(=O)N[C@@H](CCCNC(=N)N)C(=O)Nc1ccc2c(CC(N)=O)cc(=O)oc2c1) , and I need its recorded Relative substrate activity (rate of hydrolysis), cathepsin V.
Resp: 28.4 RFU/s
